METHOD_NOTES: compounds altering in vitro BBB leakiness – cell-based, FITC-avidin fluorescence, HTS, primary screen (AID 1963498); note: test concentration not given here
RECORDED_CONDITIONS: brain endothelial barrier, actives lie on both sides
MEASURE: fold change permeability
Please reply with the value in numeric form only.

Sample O=c1c(O)c(-c2ccc(O)cc2O)oc2cc(O)cc(O)c12 ; fold change permeability observed: 0.7

Documented fold change permeability of O=C1Nc2nc(-c3c(O)cccc3OCC3CC3)cc([C@@H]3CCCNC3)c2CO1 : 1.6

Note to self: fold change permeability recorded for Nc1ncnc2c1nc(Br)n2C1OC2COP(=O)(O)O[C@@H]2C1O (stereo not given in full) was 1

Per the record, N#C/C(=C1/SC[C@@H](c2ccc(Cl)cc2Cl)S1)n1ccnc1 has fold change permeability of 1.6

Measured fold change permeability, CCCn1c(=O)c2[nH]c(-c3ccc(S(=O)(=O)O)cc3)nc2n(CCC)c1=O : 1.1
